- measurement_notes: Aqueous solubility at 25 degrees Centigrade
- Assay type: physicochemical
- run_conditions: water; read-out: S
quantity: solubility (µg/mL)

- molecular_string: "Nc1ncc2ncn(CCC(CO)CO)c2n1"
  unit_label: "µg/mL"
  solubility: 120000
- molecular_string: "CC(=O)OCC(CCn1cnc2c(O)nc(N)nc21)COC(C)=O"
  unit_label: "µg/mL"
  solubility: 6700
- molecular_string: "CCC(=O)OCC(CCn1cnc2c(O)nc(N)nc21)COC(=O)CC"
  unit_label: "µg/mL"
  solubility: 1200

A: Nc1nc2c(ncn2CCC(CO)CO)c(=O)[nH]1
B: CCC(=O)OCC(CCn1cnc2cnc(N)nc21)COC(=O)CC
Given the two records A and B , choose the one whose solubility value is lower. Reply with the label of the item you choose. A

Measured values drawn from ChEMBL document CHEMBL1124547 for this set.
